- assay procedure: Solubility of the compound in phosphate buffer at pH 7.4 by chemi-luminescent nitrogen detection method
- Format: physicochemical
Square brackets hold non-standard residues; d marks the D form. Peptide text beside a SMILES is read from it. 4Pal = N[C@@H](Cc1ccncc1)C(=O)O
measurement name: log10(solubility) (log10 of the value in µM)
Form field - Quantity: solubility; Unit: µM; Scale: log10

{"columns": ["compound", "log10(solubility)"],
 "data": [
  ["CC(C)C[C@@H]1NC(=O)[C@@H](CC(C)C)NC(=O)[C@H](CC(C)C)NC(=O)[C@@](C)(CC(C)C)NC(=O)[C@@H](Cc2ccc(O)cc2)NC(=O)[C@@H]2CCCN2C(=O)[C@H](CC(C)C)NC1=O", 1.45],
  ["CC(C)C[C@@H]1NC(=O)[C@@H](CC(C)C)NC(=O)[C@H](CC(C)C)NC(=O)[C@@](C)(CC(C)C)NC(=O)[C@H](Cc2ccc(O)cc2)NC(=O)[C@@H]2CCCN2C(=O)[C@H](CC(C)C)NC1=O", 2.01],
  ["CC(C)C[C@@H]1NC(=O)[C@@H](CC(C)C)NC(=O)[C@H]([C@@H](C)O)NC(=O)[C@H](Cc2ccc(O)cc2)NC(=O)[C@@H]2CCCN2C(=O)[C@H](CC(C)C)NC1=O", 2.57],
  ["CC(C)C[C@@H]1NC(=O)[C@H](Cc2ccc(O)cc2)NC(=O)[C@@H]2CCCN2C(=O)[C@H](CC(C)C)NC(=O)[C@H](CC(C)C)N(C)C(=O)[C@@H](CC(C)C)N(C)C1=O", 2.01],
  ["CC(C)C[C@@H]1NC(=O)[C@@H](CC(C)C)NC(=O)[C@@H]([C@H](C)O)NC(=O)[C@H](Cc2ccc(O)cc2)NC(=O)[C@@H]2CCCN2C(=O)[C@H](CC(C)C)NC1=O", 2.57]
]}

Batch request: log10(solubility) per item, same order as input.
1. CC(C)C[C@@H]1NC(=O)[C@@H](CC(C)C)N(C)C(=O)[C@H](CC(C)C)NC(=O)[C@H](Cc2ccc(O)cc2)NC(=O)[C@@H]2CCCN2C(=O)[C@H](CC(C)C)NC1=O
2. CC(C)C[C@@H]1NC(=O)[C@H](Cc2ccc(O)cc2)N(C)C(=O)[C@@H]2CCCN2C(=O)[C@H](CC(C)C)NC(=O)[C@H](CC(C)C)N(C)C(=O)[C@@H](CC(C)C)N(C)C1=O

Reply:
1. 2.28
2. 1.73

Batch request: log10(solubility) per item, same order as input.
1. CC(C)C[C@@H]1NC(=O)[C@H](Cc2ccc(O)cc2)NC(=O)[C@@H]2CCCN2C(=O)[C@H](CC(C)C)NC(=O)[C@H](CC(C)C)NC(=O)[C@H](Cc2ccncc2)NC1=O (cyclo([4Pal]LLPYL))
2. CC(C)C[C@@H]1NC(=O)[C@H](CC(C)C)NC(=O)[C@@H](CC(C)C)NC(=O)[C@H](Cc2ccc(O)cc2)NC(=O)[C@@H]2CCCN2C(=O)[C@H](CC(C)C)NC1=O
3. CC(C)C[C@@H]1NC(=O)[C@H](Cc2ccc(O)cc2)NC(=O)[C@@H]2CCCN2C(=O)[C@H](CC(C)C)NC(=O)[C@](C)(CC(C)C)NC(=O)[C@@H](CC(C)C)NC1=O

Reply:
2.65
2.51
1.89

* * *

Task for the reader: assign each of the following molecules its reported chromatographic logD.
- assay procedure: Lipophilicity, log D of the compound at pH 7.4 by ChromlogD analysis
- Type: physicochemical
- condition set: buffer
Square brackets hold non-standard residues; d marks the D form. Peptide text beside a SMILES is read from it. 4Pal = N[C@@H](Cc1ccncc1)C(=O)O
Answers are plain numbers.

{"columns": ["molecule", "assay value"],
 "data": [
  ["CC(C)C[C@@H]1NC(=O)[C@@H](CC(C)C)NC(=O)[C@H](Cc2ccc(O)cc2)NC(=O)[C@@H]2CCCN2C(=O)[C@H](CC(C)C)NC(=O)[C@](C)(CC(C)C)NC(=O)[C@@H](CC(C)C)NC1=O", 6.88],
  ["CC(C)C[C@@H]1NC(=O)[C@H](CC(C)C)NC(=O)[C@@H](CC(C)C)NC(=O)[C@H](Cc2ccc(O)cc2)NC(=O)[C@@H]2CCCN2C(=O)[C@H](CC(C)C)NC1=O", 5.07],
  ["CC(C)C[C@@H]1NC(=O)[C@H](Cc2ccc(O)cc2)NC(=O)[C@@H]2CCCN2C(=O)[C@H](CC(C)C)NC(=O)[C@H](CC(C)C)NC(=O)[C@H](Cc2ccncc2)NC1=O (cyclo([4Pal]LLPYL))", 4.45],
  ["CC(C)C[C@@H]1NC(=O)[C@@H](CC(C)C)NC(=O)[C@H](CC(C)C)NC(=O)[C@@H](CC(C)C)NC(=O)[C@H](Cc2ccc(O)cc2)NC(=O)[C@@H]2CCCN2C(=O)[C@H](CC(C)C)NC1=O", 5.98],
  ["CC(C)C[C@@H]1NC(=O)[C@@H](CC(C)C)NC(=O)[C@](C)(CC(C)C)NC(=O)[C@H](Cc2ccc(O)cc2)NC(=O)[C@@H]2CCCN2C(=O)[C@H](CC(C)C)NC1=O", 6.11],
  ["CC(C)C[C@@H]1NC(=O)[C@@H](CC(C)C)NC(=O)[C@H](CC(C)C)NC(=O)[C@@](C)(CC(C)C)NC(=O)[C@@H](Cc2ccc(O)cc2)NC(=O)[C@@H]2CCCN2C(=O)[C@H](CC(C)C)NC1=O", 7.21],
  ["CC(C)C[C@@H]1NC(=O)[C@H](Cc2ccc(O)cc2)NC(=O)[C@@H]2CCCN2C(=O)[C@H](CC(C)C)NC(=O)[C@H](CC(C)C)N(C)C(=O)[C@@H](CC(C)C)N(C)C1=O", 7.52],
  ["CC(C)C[C@@H]1NC(=O)[C@@H](CC(C)C)NC(=O)[C@@H]([C@H](C)O)NC(=O)[C@H](Cc2ccc(O)cc2)NC(=O)[C@@H]2CCCN2C(=O)[C@H](CC(C)C)NC1=O", 4.2],
  ["CC(C)C[C@@H]1NC(=O)[C@@H](CC(C)C)NC(=O)[C@@H](CC(C)C)NC(=O)[C@H](Cc2ccc(O)cc2)NC(=O)[C@H]2CCCN2C(=O)[C@@H](CC(C)C)NC1=O", 5.57],
  ["CC(C)C[C@@H]1NC(=O)[C@H](Cc2ccc(O)cc2)NC(=O)[C@@H]2CCCN2C(=O)[C@H](CC(C)C)NC(=O)[C@H](CC(C)C)NC(=O)[C@H](Cc2ccccc2)NC1=O (cyclo(FLLPYL))", 6.05]
]}

Batch request: chromatographic logD per item, same order as input.
1. CC(C)C[C@@H]1NC(=O)[C@@H](CC(C)C)N(C)C(=O)[C@H](CC(C)C)NC(=O)[C@H](Cc2ccc(O)cc2)NC(=O)[C@@H]2CCCN2C(=O)[C@H](CC(C)C)NC1=O
2. CC(C)C[C@@H]1NC(=O)[C@H](Cc2ccc(O)cc2)NC(=O)[C@@H]2CCCN2C(=O)[C@H](CC(C)C)NC(=O)[C@](C)(CC(C)C)NC(=O)[C@@H](CC(C)C)NC1=O

Reply:
6.19
6.56

* * *

- assay procedure: Solubility of the compound in phosphate buffer at pH 7.4 by chemi-luminescent nitrogen detection method
- Type: physicochemical
Peptide text beside a SMILES is read from it.
Task for the reader: assign each of the following compounds its reported solubility.
One number for each entry, in µM.

{"columns": ["compound", "assay value"],
 "data": [
  ["CC(C)C[C@@H]1NC(=O)[C@@H](CC(C)C)NC(=O)[C@](C)(CC(C)C)NC(=O)[C@H](Cc2ccc(O)cc2)NC(=O)[C@@H]2CCCN2C(=O)[C@H](CC(C)C)NC1=O", 148],
  ["CC(C)C[C@@H]1NC(=O)[C@@H](CC(C)C)NC(=O)[C@H](CC(C)C)NC(=O)[C@@H](CC(C)C)NC(=O)[C@H](Cc2ccc(O)cc2)NC(=O)[C@@H]2CCCN2C(=O)[C@H](CC(C)C)NC1=O", 51.7],
  ["CC(C)C[C@@H]1NC(=O)[C@H](Cc2ccc(O)cc2)NC(=O)[C@@H]2CCCN2C(=O)[C@H](CC(C)C)NC(=O)[C@H](CC(C)C)NC(=O)[C@H](Cc2ccccc2)NC1=O (cyclo(FLLPYL))", 206]
]}

Query: Entry CC(C)C[C@@H]1NC(=O)[C@@H](CC(C)C)NC(=O)[C@@H](CC(C)C)NC(=O)[C@H](Cc2ccc(O)cc2)NC(=O)[C@H]2CCCN2C(=O)[C@@H](CC(C)C)NC1=O : reported solubility = ?
Reply: 248

* * *

Task for the reader: assign each of the following compounds its reported chromatographic logD.
- assay procedure: Lipophilicity, log D of the compound at pH 7.4 by ChromlogD analysis
- Format: physicochemical
- condition set: buffer
Square brackets hold non-standard residues; d marks the D form. Peptide text beside a SMILES is read from it. 2Pal = N[C@@H](Cc1ccccn1)C(=O)O
Give bare numbers.

# count of solved cases: 4
{"columns": ["compound", "chromatographic logD"],
 "data": [
  ["CC(C)C[C@@H]1NC(=O)[C@H](Cc2ccc(O)cc2)NC(=O)[C@@H]2CCCN2C(=O)[C@H](CC(C)C)NC(=O)[C@H](CC(C)C)NC(=O)[C@H](Cc2ccccn2)NC1=O (cyclo([2Pal]LLPYL))", 4.75],
  ["CC(C)C[C@@H]1NC(=O)[C@@H](CC(C)C)NC(=O)[C@H]([C@@H](C)O)NC(=O)[C@H](Cc2ccc(O)cc2)NC(=O)[C@@H]2CCCN2C(=O)[C@H](CC(C)C)NC1=O", 4.65],
  ["CC(C)C[C@@H]1NC(=O)[C@@H](CC(C)C)NC(=O)[C@H](CC(C)C)NC(=O)[C@@](C)(CC(C)C)NC(=O)[C@H](Cc2ccc(O)cc2)NC(=O)[C@@H]2CCCN2C(=O)[C@H](CC(C)C)NC1=O", 6.65],
  ["CC(C)C[C@@H]1NC(=O)[C@H](Cc2ccc(O)cc2)N(C)C(=O)[C@@H]2CCCN2C(=O)[C@H](CC(C)C)NC(=O)[C@H](CC(C)C)N(C)C(=O)[C@@H](CC(C)C)N(C)C1=O", 8.32]
]}

Query: Entry CC(C)C[C@@H]1NC(=O)[C@H](Cc2ccc(O)cc2)NC(=O)[C@@H]2CCCN2C(=O)[C@H](CC(C)C)NC(=O)[C@H](CC(C)C)NC(=O)[C@@H](CC(C)C)NC1=O : reported chromatographic logD = ?
Reply: 5.53
